Biological target: MMP-1FL (full-length interstitial collagenase) (Homo sapiens)
Sequence (P03956 100-469): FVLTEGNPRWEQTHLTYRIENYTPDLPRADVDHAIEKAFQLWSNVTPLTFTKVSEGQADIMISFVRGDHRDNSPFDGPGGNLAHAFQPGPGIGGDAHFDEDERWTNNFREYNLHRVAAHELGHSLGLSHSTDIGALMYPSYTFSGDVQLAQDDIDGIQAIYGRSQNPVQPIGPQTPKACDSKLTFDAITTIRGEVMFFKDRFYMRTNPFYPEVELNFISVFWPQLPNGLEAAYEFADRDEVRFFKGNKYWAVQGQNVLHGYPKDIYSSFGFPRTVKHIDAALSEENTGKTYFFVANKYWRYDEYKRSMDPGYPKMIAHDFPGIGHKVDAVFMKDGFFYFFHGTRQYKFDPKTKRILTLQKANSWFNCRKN
Experiment: Thiopeptolide hydrolysis assay, MMP-1
Format: biochemical
Settings: Table 1b; read-out: MMP01 IC50
pIC50: −log10 of the molar value.
valueKind: pIC50

# input Look up pIC50 for this compound: Cc1c(=O)n(Cc2ccccc2)c(=O)n2cc(C(=O)NCc3ccc(Cl)cc3)sc12
# output < 4.52

# input Return reported pIC50; argument: Cc1c(=O)n(Cc2ccccc2)c(=O)n2cc(C(=O)NCc3ccc(OC(F)(F)F)cc3)sc12
# output < 4.52

# input Given COc1ccc(CNC(=O)c2cn3c(=O)n(Cc4ccccc4)c(=O)c(C)c3s2)cn1 , state its recorded pIC50.
# output < 4.52

# input Would you kindly share the measured pIC50 for COC(=O)c1ccc(Cn2c(=O)c(C)c3sc(C(=O)NCc4ccc(F)cc4)cn3c2=O)cc1Cl ?
# output < 4.52

# input Item Cc1ccc(CNC(=O)c2cn3c(=O)n(Cc4ccccc4)c(=O)c(C)c3s2)cc1 has what recorded pIC50?
# output < 4.52

# input # pIC50 lookup, item O=C(OCc1ccccc1)C1C[S+]([O-])c2cc(=O)n(Cc3ccccc3)c(=O)n21 (stereo not drawn)
# output < 4.00

---

Biological target: MMP-13CD (catalytic domain of collagenase 3) (Homo sapiens, UniProt P45452)
Assay: biochemical
The entries below are paired with their reported log10 of IC50.
# values: log10(IC50), units nM

# input // query log10 of IC50 value for entry CC(C)Cn1c(=O)n(Cc2ccccc2)c(=O)c2cc(C(=O)NCc3ccc4c(c3)OCO4)ccc21
# output 2.78

# input Report log10 of IC50 for O=C(NCc1ccc2c(c1)OCO2)c1ccc2[nH]c(=O)n(Cc3ccc(Cl)cc3)c(=O)c2c1 [Synthesis Example 32] please.
# output 1.45

# input What does the record list as log10 of IC50 for COc1ccc(CNC(=O)c2cnc3c(c2)c(=O)n(Cc2ccc(C#N)cc2)c(=O)n3C)cc1 [Synthesis Example 51] ?
# output 1.20

# input Reported log10 of IC50, molecule O=C(NCc1cccs1)c1ccc2[nH]c(=O)n(Cc3ccccc3)c(=O)c2c1 : ____
# output 3.27

# input # get_value(readout='log10 of IC50', item= Cn1c(=O)[nH]c(=O)c2cc(C(=O)NCc3ccc4c(c3)OCO4)ccc21 [Synthesis Example 37] )
# output 2.96

# input State the recorded log10 of IC50 for this entry: Cn1c(=O)c2cc(C(=O)NCc3ccc4c(c3)OCO4)ccc2n(C)c1=O
# output 3.23

# input Looking for the measured log10 of IC50 of COC(=O)c1ccc(Cn2c(=O)c3cc(C(=O)NCc4ccc(OC)cc4)ncc3n(C)c2=O)cc1 [Synthesis Example 54] , can you help?
# output 0.23

# input GET /values?readout=log10 of IC50&item= Cn1c(=O)n(Cc2ccc3c(c2)OCO3)c(=O)c2cc(C(=O)NCc3ccc4c(c3)OCO4)ccc21 [Synthesis Example 35]
# output 0.48

---

Target: MMP-13CD (catalytic domain of collagenase 3) (Homo sapiens)
Test: Thiopeptolide hydrolysis assay, MMP-13;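 note: inhibition of enzymatic thiopeptolide substrate cleavage (100 µM) in pH 6.0 MES buffer with CaCl2 and DTNB, comparing hydrolysis with versus without inhibitor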
Settings: MMP13 (CD) IC50 μM, Table 1a; catalytic domain
valueKind: IC50 (µM)
The response must be a number in µM with no trailing unit.

Examples with answers:
• COc1ccc(CNC(=O)c2cn3c(=O)n(Cc4ccc(Cl)c(Cl)c4)c(=O)cc3s2)cc1 = 0.084
• O=C(OCc1ccncc1)c1cn2c(=O)n(Cc3ccccc3)c(=O)cc2s1 = 0.0054

Consider the additional compound presented here.
# input // fetch MMP-13CD (catalytic domain of collagenase 3) (Homo sapiens) IC50 for COc1ccc(CNC(=O)c2cn3c(=O)n(Cc4ccc(C(=O)O)cc4)c(=O)c(C)c3s2)cc1
# output 0.0015
